TEST_SUMMARY: protein stability index of a GFP-peptide fusion (yeast GPS) (PSI 1-4); higher = more stable; sorted into four equal gates, so the index is relative within each strain
CONDITION_CONTEXT: doa10∆
Examples of sequences with documented protein stability index follow.
Please give the numeric answer without any surrounding text.

Take a look at these entries with their results.
>>> meas_value("PGYVDIVKTSSGNEMPP [RPS19A]")
2.67
>>> meas_value("ENDNLDNVSKNALDKLR [YCG1]")
3.29
>>> meas_value("GNDAKPAKVEDVQKSSD [YLR335W/NUP2]")
3.3
>>> meas_value("QAPTTGFSFGSQLGGNK [YJL041W/NSP1]")
3.02

Ask: Any idea what protein stability index was measured for TNLQRNVDRLYKLNVRS [NUT2] ?
Result: 3.66

Ask: Any idea what protein stability index was measured for LPSGRQDGVLLVALSNE [FAS2] ?
Result: 2.4

Ask: Any idea what protein stability index was measured for PHANPITHAHSLSNPNS [PGD1] ?
Result: 2.87

Ask: Any idea what protein stability index was measured for TSDLLGSHLSETEFPPF [ECM29] ?
Result: 2.94

Ask: Any idea what protein stability index was measured for RDLILTEYGRKYNVNIS [PRP8] ?
Result: 2.2

---

TEST_SUMMARY: protein stability index of a GFP-peptide fusion (yeast GPS) (PSI 1-4); higher = more stable; sorted into four equal gates, so the index is relative within each strain
CONDITION_CONTEXT: pdr5∆
Field: class. Source value: protein stability index. Ranges: lo = under 2, mid = from 2 up to 3, hi = 3 and over

>>> category("IASTLGPSAMRLSRCIR [RPC82]")
"mid"
>>> category("ALRRRVGPSEQNFAEED [REC8]")
"hi"
>>> category("AHVNKVTEETTKQIQSV [SIR4]")
"mid"
>>> category("NTTTRVIPQVEVGNRKH [SNF5]")
"mid"
>>> category("KRRIEEEQEKINSAPDF [ISW2]")
"hi"
>>> category("PTKLLVSEVAKIMQEAT [PRE8]")
"mid"
>>> category("MVCETDVPSEDDPTQLV [RPO21]")
"hi"
>>> category("HEKIEDEDEDNDLDEDD [RPN4]")
"hi"
>>> category("ENIIQRLQAANSMEYTG [CDC53]")
"mid"
>>> category("DVYASKVRLNASEREEL [PRP8]")
"mid"

Ask: Band assignment needed for RVERSSRSTDNFHNSKK [RRI1] please.
Result: hi

Ask: Band assignment needed for QRQDFERVRLRPEQLSN [SNF6] please.
Result: mid

Ask: Band assignment needed for LYRYRFDPFQAVSRSMT [ECM29] please.
Result: mid

Ask: Band assignment needed for RIHRLARYYRTVAVLPP [RPS13] please.
Result: lo

Ask: Band assignment needed for ATAIGKGSVAAKTFLEK [PRE8] please.
Result: lo

Ask: Band assignment needed for NLGYCNDKLIVDNDNWV [RPN1] please.
Result: mid

Ask: Band assignment needed for KETIARVTGGMKVKADR [RPS14A] please.
Result: hi

Ask: Band assignment needed for RTDATFIRVIGSELVQK [RPT1] please.
Result: hi

Ask: Band assignment needed for VAGGKKALAIFVPVPSL [RPS7A] please.
Result: lo

Ask: Band assignment needed for GGFEDVEEYTWSSLLNE [RPB2] please.
Result: hi

Ask: Band assignment needed for SPISDSRDELIRLAKTL [RPN10] please.
Result: lo

Ask: Band assignment needed for NTMSAWVNMLLISSSGP [FAS2] please.
Result: lo

Ask: Band assignment needed for DFPHLTPKLQTQLSYLI [YCS4] please.
Result: mid

Ask: Band assignment needed for VACLFITISIHGKPTKG [SSN8] please.
Result: lo

---

TEST_SUMMARY: protein stability index of a GFP-peptide fusion (yeast GPS) (PSI 1-4); higher = more stable; sorted into four equal gates, so the index is relative within each strain
CONDITION_CONTEXT: ubr1∆
The threshold is inclusive: protein stability index of exactly 2 counts as yes; values below receive no.

Reference set, count: 3
>>> category("QKVFVRSRNGGATKIVR [DIS3]")
"yes"
>>> category("HGAFMDIIWLQRDLGLY [RRP6]")
"no"
>>> category("ESGLVNADLDVKDELMF [RPO21]")
"yes"

Ask: Assess whether reported protein stability index for YSKIPNILSNKPGQNNR [RRP6] sits at 2 or higher.
Result: no

Ask: Assess whether reported protein stability index for YARFKNDFFPGEVVYLR [ITC1] sits at 2 or higher.
Result: yes

Ask: Assess whether reported protein stability index for KCKTRAQLTLKRCKHFE [RPL42A] sits at 2 or higher.
Result: yes

Ask: Assess whether reported protein stability index for DSSAHFKGALTIKILPE [YMR129W/POM152] sits at 2 or higher.
Result: yes

Ask: Assess whether reported protein stability index for GDYNNTVYSSEQYIQEL [SMC3] sits at 2 or higher.
Result: yes

Ask: Assess whether reported protein stability index for ISKTTLTLDPRYIWRSL [RPN3] sits at 2 or higher.
Result: yes

Ask: Assess whether reported protein stability index for PEQYSDILLNERVWNIC [AAR2] sits at 2 or higher.
Result: yes

---

TEST_SUMMARY: protein stability index of a GFP-peptide fusion (yeast GPS) (PSI 1-4); higher = more stable; sorted into four equal gates, so the index is relative within each strain
CONDITION_CONTEXT: san1∆
Examples of sequences with documented protein stability index follow.

>>> meas_value("NTGIVSSTTGMSYVVRI [RPT3]")
3.31
>>> meas_value("KSIDSKTPEEVEVYAKI [ISW2]")
2.88
>>> meas_value("SDKIPYVAPTKKEYIEL [SRB4]")
2.32
>>> meas_value("TTKILGDKILGNLYSKV [YML103C/NUP188]")
3.16
>>> meas_value("VKKVIEINPFLLGTMAG [PRE2]")
1.38

Ask: Any idea what protein stability index was measured for PQEPKHIQEEEEQDVDM [RPC19] ?
Result: 3.12

Ask: Any idea what protein stability index was measured for HHNDISNDSQSHFDYNT [YCG1] ?
Result: 2.49

Ask: Any idea what protein stability index was measured for KRPPEIMSTEAHVNKVT [SIR4] ?
Result: 2.92

Ask: Any idea what protein stability index was measured for PDGLGEVGMKVQSGQIY [RET1] ?
Result: 2.91

Ask: Any idea what protein stability index was measured for FRHFIGIKAKHDKNIQK [ISW2] ?
Result: 2.48

---

Examples of sequences with documented protein stability index follow.
TEST_SUMMARY: protein stability index of a GFP-peptide fusion (yeast GPS) (PSI 1-4); higher = more stable; sorted into four equal gates, so the index is relative within each strain
CONDITION_CONTEXT: pdr5∆
Please give the numeric answer without any surrounding text.

>>> meas_value("TSIARIGDYILKSPVLS [QCR7]")
1.72

Ask: Any idea what protein stability index was measured for KTLNLFKQIKSADCELL [RPO31] ?
Result: 1.06

Ask: Any idea what protein stability index was measured for KTYNKLHYCVSCAIHAR [RPS26A] ?
Result: 1.33

Ask: Any idea what protein stability index was measured for DDDEVDYSEIQRSRRKF [DSN1] ?
Result: 3.66

Ask: Any idea what protein stability index was measured for KSVYETPKITAAEKSFK [SEC65] ?
Result: 2.08

Ask: Any idea what protein stability index was measured for NAASQQPTPRSASNTAK [GAL11] ?
Result: 2.68

Ask: Any idea what protein stability index was measured for MVAATKRRKTHIHKHVK [RET1] ?
Result: 3.08

Ask: Any idea what protein stability index was measured for TKIFNSVAEVFQKAQGS [YCG1] ?
Result: 1.55

Ask: Any idea what protein stability index was measured for KVISEILTKEVQGSTLA [RPS1A] ?
Result: 2.34

Ask: Any idea what protein stability index was measured for LARASGNYVIIIGHNPD [RPL2A] ?
Result: 2.89

Ask: Any idea what protein stability index was measured for TPKGNESEQELSLHTGF [MTR3] ?
Result: 3.13

Ask: Any idea what protein stability index was measured for DDNETENPNFWRQFGNR [GRR1] ?
Result: 3.23

Ask: Any idea what protein stability index was measured for QIANEFNTQQGIKKHSL [YDL116W/NUP84] ?
Result: 3.3

Ask: Any idea what protein stability index was measured for ASEVATHSKLFADKKRD [PRP8] ?
Result: 2.69

---

TEST_SUMMARY: protein stability index of a GFP-peptide fusion (yeast GPS) (PSI 1-4); higher = more stable; sorted into four equal gates, so the index is relative within each strain
CONDITION_CONTEXT: ubr1∆
The threshold is inclusive: protein stability index of exactly 3 counts as True; values below receive False.

Reference set, count: 5
>>> category("SNLTIYPIYELLMSCPR [GRR1]")
"False"
>>> category("SKKLDVTVEQLRSIYHQ [NSL1]")
"False"
>>> category("TFIYGYCDKNFRENMSK [PRE3]")
"False"
>>> category("YDNEKTAELIKELKEKE [PUP2]")
"True"
>>> category("SQESINQKLALVIKSGK [RPL30]")
"False"

Ask: Assess whether reported protein stability index for HGKPTKGSSLASAASEA [SSN8] sits at 3 or higher.
Result: False

Ask: Assess whether reported protein stability index for QHHVTDADKLSFNCENF [YML031W/NDC1] sits at 3 or higher.
Result: False

Ask: Assess whether reported protein stability index for HWNLPGERIFNKIRNLE [SIR2] sits at 3 or higher.
Result: True

Ask: Assess whether reported protein stability index for KSVKFVQGLLQNAAANA [RPL17A] sits at 3 or higher.
Result: False

Ask: Assess whether reported protein stability index for STGDYTFTIQLLKLTKV [YML103C/NUP188] sits at 3 or higher.
Result: False
